Hello, the source for this data is the supplement of paper PMC13380429, in case you need it.

# Test system: Vero E6 infected with SARS-CoV-2
# EXPERIMENT: morphology score (similarity to uninfected cells); higher = more like uninfected cells
# CONDITION: 24 h
MEASUREMENT_LABEL: morphology score
Format: numeric value only, no unit, no commentary.

CCC(C)(C)c1ccc(CC(C)CN2C[C@@H](C)O[C@@H](C)C2)cc1 (some centres not stated) [amorolfine] (10 µM) : 0.198
CC(C)(C)NCC(O)c1cc(Cl)c(N)c(Cl)c1 (configuration not stated) [clenbuterol] (10 µM) : -0.0972
Nc1nc(F)nc2c1ncn2[C@@H]1O[C@H](CO)[C@@H](O)[C@@H]1O [fludarabine] (10 µM) : -0.0436

Dear colleague, I am looking for the recorded morphology score of the following compound: O=C(c1ccc(OCCN2CCCCC2)cc1)c1c(-c2ccc(O)cc2)sc2cc(O)ccc12 [raloxifene] (0.833333 µM)
0.0812

What morphology score value was documented for this compound, Cc1cccc(Nc2ccncc2S(=O)(=O)NC(=O)NC(C)C)c1 [torasemide] (10 µM) ?
0.215

Return reported morphology score; argument: O=c1ccc2cc3ccoc3cc2o1 [psoralen] (10 µM)
-0.0337

Fill in: morphology score of CC[C@@H](C)N(C)C(=O)c1cc2ccccc2c(-c2ccccc2Cl)n1 (10 µM) is ___
-0.122

Which morphology score is reported for this compound? Cc1c(OCC(F)(F)F)ccnc1C[S+]([O-])c1nc2ccccc2[nH]1 (configuration not stated) [lansoprazole] (10 µM)
0.115

What measured morphology score goes with CC1(C)C(=O)N(CCN2CCC(C(=O)c3ccc(F)cc3)CC2)c2ccccc21 (10 µM) ?
-0.158

Recorded morphology score of CCn1c2ccccc2c2cc(Nc3ccnc(NCCCN4CCOCC4)n3)ccc21 (0.833333 µM) , please.
0.235

Endpoint output: morphology score of C[C@@H](O[C@H]1OCCN(Cc2n[nH]c(=O)[nH]2)[C@H]1c1ccc(F)cc1)c1cc(C(F)(F)F)cc(C(F)(F)F)c1 [aprepitant] (10 µM) . Value?
0.0718

Would you kindly share the measured morphology score for Cc1ccccc1C(C(=O)NC1CCCCC1)N(C(=O)Cn1ccnc1C)c1cccc(F)c1 (configuration not stated) (10 µM) ?
0.177

Fill in the blank: the reported morphology score of O=C(O)c1ccccc1Nc1cccc(C(F)(F)F)c1 [flufenamic-acid] (10 µM) is ____.
0.156

----------
# Test system: Vero E6 infected with SARS-CoV-2
# EXPERIMENT: inhibition of SARS-CoV-2 cytopathic effect; higher = more antiviral protection, active = above 15
# CONDITION: 833.33 nM; 48 h
MEASUREMENT_LABEL: inhibition of SARS-CoV-2 cytopathic effect (%)
Provide only the numeric value, understood in %.

Here is how some compounds turned out for inhibition of SARS-CoV-2 cytopathic effect.
OC(c1cc(C(F)(F)F)nc2c(C(F)(F)F)cccc12)C1CCCCN1 (stereo not given) : -3.31
COc1ccc(NC(=O)c2ccc(C(=N)N(C)C)cc2)c(C(=O)Nc2ccc(Cl)cn2)c1 : 1.17
CC1(C)CCC(C)(C)c2c1cc(C(=O)Nc1cc(F)c(C(=O)O)c(F)c1)c(O)c2Cl : 2.72
CCCC(C(=O)OCCN(CC)CC)(c1ccccc1)c1ccccc1 : -3.07

From here, focus on the item given below.
Fill in the blank: the reported inhibition of SARS-CoV-2 cytopathic effect of CCC(c1ccccc1)c1c(O)c2ccccc2oc1=O (stereo not given) is ____.
-0.13

----------
# System: Vero E6 infected with SARS-CoV-2
# EXPERIMENT: inhibition of SARS-CoV-2 cytopathic effect; higher = more antiviral protection, active = above 15
# CONDITION: 10000 nM; 48 h
Hi there, use one of these labels in your reply, thanks! active, inactive

Example cases with answers are listed next.
N=C(N)NCCSSCCNC(=N)N [guanidinoethyldisulfide-bicarbonate] : inactive
O=C1NC(=O)c2c1c1c3ccccc3[nH]c1c1[nH]c3ccccc3c21 : inactive
N#C/C(=C1/SC[C@@H](c2ccc(Cl)cc2Cl)S1)n1ccnc1 : inactive
CC(C)(C)c1ccc(S(=O)(=O)/C=C/C#N)cc1 : inactive
O=[N+]([O-])c1ccc2c(c1)S(=O)(=O)C=C2 : inactive
Cc1nc2c([nH]1)-c1ccccc1N(C(=O)c1ccc(NC(=O)c3ccccc3-c3ccccc3)cc1)CC2 : inactive

--- query ---
Which outcome did this test record for the molecule CN(c1ccccc1CNc1nc(Nc2ccc3c(c2)CC(=O)N3)ncc1C(F)(F)F)S(C)(=O)=O ?
inactive

----------
Below: a set of entries, each annotated with reported inhibition of SARS-CoV-2 cytopathic effect.
# System: Vero E6 infected with SARS-CoV-2
# EXPERIMENT: inhibition of SARS-CoV-2 cytopathic effect; higher = more antiviral protection, active = above 15
# CONDITION: 100 nM; 48 h
Give the value, in units of %, as a plain number.

CCC1(C2=NCCN2)Cc2ccccc2O1 (centres undefined) [efaroxan] : -0.66
C[C@@H]1C[C@H]2[C@@H]3CCC4=CC(=O)C=C[C@]4(C)[C@@]3(Cl)[C@@H](O)C[C@]2(C)[C@@]1(OC(=O)c1ccco1)C(=O)CCl : -2.34
COc1ccc(Cc2nccc3cc(OC)c(OC)cc23)cc1OC [papaverine] : -3.04
COc1nccc(-c2c(-c3ccc(F)cc3)ncn2C2CCNCC2)n1 : -2.49
NC(=O)Nc1cc(-c2cccc(F)c2)sc1C(=O)N[C@H]1CCCNC1 : -2.2
CCCC[C@@]1(C2CCCC2)Cc2cc(OCCCC(=O)O)c(Cl)c(Cl)c2C1=O : 0.81
Oc1ccc2ccccc2c1 [beta-naphthol] : 2.24
CCN(CC)C(=O)N[C@H]1C[C@@H]2c3cccc4[nH]cc(c34)C[C@H]2N(C)C1 [terguride] : -0.57

Please give the measured inhibition of SARS-CoV-2 cytopathic effect for this molecule: O=C1/C(=C/c2ccccc2)C[C@@]2(O)[C@H]3Cc4ccc(O)c5c4[C@@]2(CCN3CC2CC2)[C@H]1O5
1.2

----------
The entries below come with measured SARS-CoV-2 infection rate values attached.
# System: Vero E6 infected with SARS-CoV-2
# EXPERIMENT: SARS-CoV-2 infection rate relative to infected DMSO; higher = more infection, active = 60 or less
# CONDITION: 24 h
Express your answer in %, writing the number without its unit.

OCc1cc(C(O)CNCCCCCCOCCCCc2ccccc2)ccc1O (configuration not stated) [salmeterol] (10 µM) : 54.5
CCS(=O)(=O)c1cccc(-c2cc(C(=O)NC3CCN(C)CC3)c(C)c3[nH]c4ncc(C)cc4c23)c1 (0.833333 µM) : 105
CCOc1ccccc1OCC1CNCCO1 (configuration not stated) [viloxazine] (10 µM) : 112
CN(C)CCOc1ccc(/C(=C(/CCCl)c2ccccc2)c2ccccc2)cc1 [toremifene] (0.833333 µM) : 112
O=c1ccc2cc3ccoc3cc2o1 [psoralen] (10 µM) : 108

Would you kindly look at the next entry?
SARS-CoV-2 infection rate for COc1ccc(Cl)cc1NC(=O)Nc1cc(C)nc2ccccc12 (10 µM) ?
96.5

----------
# Test system: Vero E6 infected with SARS-CoV-2
# EXPERIMENT: inhibition of SARS-CoV-2 cytopathic effect; higher = more antiviral protection, active = above 15
# CONDITION: 10000 nM; 48 h
MEASUREMENT_LABEL: inhibition of SARS-CoV-2 cytopathic effect (%)
// return numeric value only (unit: %, not printed)

Some entries whose results are on file:
Clc1ccc(CO/N=C(\Cn2ccnc2)c2ccc(Cl)cc2Cl)c(Cl)c1 : -1.24
c1ccc(CNc2ncnc3[nH]cnc23)cc1 : -1.09

Give its inhibition of SARS-CoV-2 cytopathic effect value. Item: COCCOCCOc1ccc(C2=N[C@@](C)(C(=O)O)CS2)c(O)c1
2.16

I am curious: what inhibition of SARS-CoV-2 cytopathic effect value has been reported for COc1ccc2cc(-c3cc(-c4cc(Cl)cc(Cl)c4)nn3[C@@H](C)c3ccc(C(=O)NCCC(=O)O)cc3)ccc2c1 ?
4.95

Could you tell me which inhibition of SARS-CoV-2 cytopathic effect is on file for CC/C=C\C/C=C\C/C=C\C/C=C\C/C=C\C/C=C\CCC(=O)OCC ?
0.36

----------
# SARS-CoV-2 infection rate listing for each entry below
# Test system: Vero E6 infected with SARS-CoV-2
# EXPERIMENT: SARS-CoV-2 infection rate relative to infected DMSO; higher = more infection, active = 60 or less
# CONDITION: 24 h

Below, each entry is followed by its recorded SARS-CoV-2 infection rate result.
Nc1nc(N)c2nc(-c3ccccc3)c(N)nc2n1 [triamterene] (0.833333 µM) : 118% (inactive)
Cc1ccccc1NC(=N)Nc1ccccc1C [ditolylguanidine] (10 µM) : 117% (inactive)
Nc1cccc(CNC(=O)c2ccc(Oc3ccc(OCc4cccc(F)c4)cc3)nc2)c1 (10 µM) : 119% (inactive)
Nc1ccncc1 [dalfampridine] (10 µM) : 103% (inactive)
CCC(C)(C)C(=O)O[C@H]1C[C@@H](C)C=C2C=C[C@H](C)[C@H](CC[C@@H]3C[C@@H](O)CC(=O)O3)[C@H]21 [simvastatin] (0.833333 µM) : 26.5% (active)
CC(=O)SCCC(=O)N1[C@H](C)CCC[C@@H]1C(=O)O [methiopril] (10 µM) : 102% (inactive)

Name the recorded SARS-CoV-2 infection rate for CC(C)(S)C(N)C(=O)O (stereo in doubt) [penicillamine-(racemic)] (10 µM) .
100% (inactive)

Returns the measured SARS-CoV-2 infection rate for the input compound. Input: Cc1cc2c(N3CCCC3)nc(N3CCCC3)nc2n1C (10 µM)
75% (inactive)

Name the reported SARS-CoV-2 infection rate value associated with the compound C[C@@H]1CC[C@@]2(NC1)O[C@H]1C[C@H]3[C@@H]4CC=C5C[C@@H](O[C@@H]6O[C@H](CO)[C@@H](O[C@@H]7O[C@@H](C)[C@H](O)[C@@H](O)[C@H]7O)[C@H](O)[C@H]6O[C@@H]6O[C@@H](C)[C@H](O)[C@@H](O)[C@H]6O)CC[C@]5(C)[C@H]4CC[C@]3(C)[C@H]1[C@@H]2C [solamargine] (0.833333 µM)
102% (inactive)

Look at this compound and give its reported SARS-CoV-2 infection rate. CCC1(CC)C(=O)NC(=O)N(C)C1=O [metharbital] (10 µM)
91.5% (inactive)

For CCCCCCCCCCCCCCCC[N+](C)(C)Cc1ccccc1 [benzyldimethylhexadecylammonium] (10 µM) , what is its reported SARS-CoV-2 infection rate?
80% (inactive)

Dear colleague, I am looking for the recorded SARS-CoV-2 infection rate of the following compound: NS(=O)(=O)Nc1ncnc(OCCOc2ncc(Br)cn2)c1-c1ccc(Br)cc1 (10 µM)
120% (inactive)
